SYSTEM_TESTED: DYRK1A (Homo sapiens (Human))
TEST_DESCRIPTION: DYRK1A activity Tau assay: pSer396 Tau in SH-SY5Y cells by ELISA / western blot
TEST_CONTEXT: overnight (16-18 h) exposure
QUANTITY_NAME: EC50 (nM)

INSERT INTO results (chemical_string, value_reported) VALUES
  ('CC(C)N1CCC(NC(=O)c2n[nH]c3cc(Cl)c(-c4cccnc4)cc23)CC1', 96),
  ('CC#CCN1CCC(NC(=O)c2n[nH]c3ccc(-c4cccnc4)cc23)CC1', 7),
  ('Cc1ccc(-c2ccc3[nH]nc(C(=O)NCCCOC(C)C)c3c2)cn1', 60),
  ('CN1CCN(c2ccc(NC(=O)c3n[nH]c4ccc(-c5cncc(CN6CCC(F)(F)C6)c5)cc34)cn2)CC1', 1),
  ('O=C(NC1CCC(F)(F)CC1)c1n[nH]c2ccc(-c3cncc(F)c3)cc12', 17),
  ('CC[C@@H](C)NC(=O)c1n[nH]c2ccc(-c3cncc(Cl)c3)cc12', 122),
  ('O=C(NC1(c2ccccc2)CC1)c1n[nH]c2ccc(-c3cncc(CN4CCC4)c3)cc12', 63),
  ('CC(C)Oc1ccc(NC(=O)c2n[nH]c3ccc(-c4cncc(CN5CC6CC(C5)O6)c4)cc23)cn1', 4);

====

System: Wnt activity (Wnt-responsive SP5 promoter luciferase reporter in SW480 cells)
TEST_DESCRIPTION: Wnt activity reporter assay: SW480 cells with SP5 promoter-driven firefly luciferase
Type: cell-based
TEST_CONTEXT: Homo sapiens, 24 h after compound addition, read-out: Wnt inhibition
pIC50: −log10 of the molar value.
QUANTITY_NAME: pIC50

INSERT INTO results (chemical_string, value_reported) VALUES
  ('COc1ccc(NC(=O)c2n[nH]c3ccc(-c4cncc(CN5CCCC5)c4)cc23)cn1', 7.30),
  ('O=C(NC1CCN(CC(F)F)CC1)c1n[nH]c2ccc(-c3cncc(F)c3)cc12', 5.92),
  ('O=C(Nc1cnccc1NC(=O)C1CC1)c1n[nH]c2ccc(-c3cncc(CN4CCCCC4)c3)cc12', 6.92),
  ('O=C(NC1CCNCC1)c1n[nH]c2ccc(-c3cccnc3)cc12', 5.19);

====

SYSTEM_TESTED: DYRK1A (Homo sapiens (Human))
TEST_DESCRIPTION: DYRK1A activity Tau assay: pSer396 Tau in SH-SY5Y cells by ELISA / western blot
Assay type: cell-based
TEST_CONTEXT: overnight (16-18 h) exposure
QUANTITY_NAME: EC50 (nM)

INSERT INTO measurements (chemical_string, value_reported) VALUES
  ('O=C(NCCN1CCOCC1)c1n[nH]c2ccc(-c3cccc(F)c3F)cc12', 23),
  ('CCN1CCC(NC(=O)c2n[nH]c3ccc(-c4cnc5ccc(F)cc5c4)cc23)CC1', 340),
  ('CC(C)(C)NC(=O)c1n[nH]c2ccc(-c3cncc(CN4CC(F)(F)C4)c3)cc12', 128),
  ('O=C(NC1CCC1)c1n[nH]c2ccc(-c3cccnc3)cc12', 18),
  ('CN1CCN(c2ccc(NC(=O)c3n[nH]c4ccc(-c5cncc(NC(=O)c6cc(F)ccc6F)c5)cc34)cn2)CC1', 2),
  ('O=C(Nc1cccnc1)c1n[nH]c2cc(F)c(-c3cncc(CN4CCCCC4)c3)cc12', 1),
  ('CC(C)CN1CC(NC(=O)c2n[nH]c3ccc(-c4cncc(C(F)F)c4)cc23)C1', 20),
  ('O=C(NC1(c2ccccc2)CC1)c1n[nH]c2ccc(-c3cncc(CN4CCCCC4)c3)cc12', 158);

====

SYSTEM_TESTED: DYRK1A (Homo sapiens (Human), UniProt Q13627)
TEST_DESCRIPTION: DYRK1A activity Tau assay: pSer396 Tau in SH-SY5Y cells by ELISA / western blot
Assay type: cell-based
TEST_CONTEXT: overnight (16-18 h) exposure
EC50 for assorted compounds
QUANTITY_NAME: EC50 (µM)

INSERT INTO results (chemical_string, system_tested, value_reported) VALUES
  ('CC(C)OCCCNC(=O)c1n[nH]c2ccc(-c3cccnc3)cc12', 'DYRK1A (Homo sapiens (Human), UniProt Q13627)', 0.005),
  ('O=C(N[C@@H]1C[C@@H]1c1ccccc1)c1n[nH]c2ccc(-c3cccnc3)cc12', 'DYRK1A (Homo sapiens (Human), UniProt Q13627)', 0.004),
  ('CC(C)CN1CCC(NC(=O)c2n[nH]c3ccc(-c4cccnc4)cc23)CC1', 'DYRK1A (Homo sapiens (Human), UniProt Q13627)', 0.011),
  ('O=C(Nc1ccc(CN2CCCC2)cc1)c1n[nH]c2cc(F)c(-c3cccnc3)cc12', 'DYRK1A (Homo sapiens (Human), UniProt Q13627)', 0.022),
  ('O=C(Nc1ccnc(N2CCCCC2)c1)c1n[nH]c2ccc(-c3cccnc3)cc12', 'DYRK1A (Homo sapiens (Human), UniProt Q13627)', 0.005),
  ('CC(C)(C)N1CCC(NC(=O)c2n[nH]c3ccc(-c4cncc(N5CCCC5)c4)cc23)CC1', 'DYRK1A (Homo sapiens (Human), UniProt Q13627)', 0.022),
  ('CC(F)(F)CN1CCC(NC(=O)c2n[nH]c3ccc(-c4cncc(Cl)c4)cc23)CC1', 'DYRK1A (Homo sapiens (Human), UniProt Q13627)', 0.031),
  ('N[C@H]1CC[C@@H](NC(=O)c2n[nH]c3ccc(-c4cccnc4)cc23)CC1', 'DYRK1A (Homo sapiens (Human), UniProt Q13627)', 0.035),
  ('O=C(NCC1CC1)c1n[nH]c2ccc(-c3cncc(Cl)c3)cc12', 'DYRK1A (Homo sapiens (Human), UniProt Q13627)', 0.043),
  ('C#CCN1CCC(NC(=O)c2n[nH]c3ccc(-c4cccnc4)cc23)CC1', 'DYRK1A (Homo sapiens (Human), UniProt Q13627)', 0.005),
  ('Cc1ccc(NC(=O)c2n[nH]c3ccc(-c4cncc(CN5CCCCC5)c4)cc23)cn1', 'DYRK1A (Homo sapiens (Human), UniProt Q13627)', 0.001),
  ('CN1CCC(NC(=O)c2n[nH]c3ccc(-c4cncc(C(F)(F)F)c4)cc23)CC1', 'DYRK1A (Homo sapiens (Human), UniProt Q13627)', 0.261),
  ('O=C(Nc1cc(CN2CCCC2)ccc1Cl)c1n[nH]c2ccc(-c3cccnc3)cc12', 'DYRK1A (Homo sapiens (Human), UniProt Q13627)', 0.009),
  ('O=C(NC1CCN(CC2CC2)CC1)c1n[nH]c2ccc(-c3cncc(F)c3)cc12', 'DYRK1A (Homo sapiens (Human), UniProt Q13627)', 0.033),
  ('CC(C)(C)CN1CCC(NC(=O)c2n[nH]c3ccc(-c4cccnc4)cc23)CC1', 'DYRK1A (Homo sapiens (Human), UniProt Q13627)', 0.007),
  ('O=C(Nc1cc(C(F)(F)F)ccn1)c1n[nH]c2ccc(-c3cncc(CN4CCCCC4)c3)cc12', 'DYRK1A (Homo sapiens (Human), UniProt Q13627)', 0.02),
  ('Cc1ncc(-c2ccc3[nH]nc(C(=O)NC4CCN(CC(C)(C)F)CC4)c3c2)cn1', 'DYRK1A (Homo sapiens (Human), UniProt Q13627)', 0.534);

====

SYSTEM_TESTED: DYRK1A (Homo sapiens (Human), UniProt Q13627)
TEST_DESCRIPTION: DYRK1A activity Tau assay: pSer396 Tau in SH-SY5Y cells by ELISA / western blot
TEST_CONTEXT: overnight (16-18 h) exposure
QUANTITY_NAME: log10 of EC50 (log10 of the value in nM)

INSERT INTO measurements (chemical_string, quantity_name, value_reported) VALUES
  ('O=C(NC1CCNCC1)c1n[nH]c2ccc(-c3cccnc3)cc12', 'log10 of EC50', 1.45),
  ('CC[C@@H](C)NC(=O)c1n[nH]c2ccc(-c3cccnc3)cc12', 'log10 of EC50', 1.15),
  ('CC(C)CNC(=O)c1n[nH]c2ccc(-c3cncc(Cl)c3)cc12', 'log10 of EC50', 1.54),
  ('CC(C)N1CCC(NC(=O)c2n[nH]c3ccc(-c4cncc(C(F)F)c4)cc23)CC1', 'log10 of EC50', 2.07),
  ('O=C(NCCN1CCCC1)c1n[nH]c2ccc(-c3cccnc3)cc12', 'log10 of EC50', 0.60),
  ('O=C(Nc1ccc(N2CC(F)(F)C2)nc1)c1n[nH]c2ccc(-c3cncc(CN4CCCCC4)c3)cc12', 'log10 of EC50', 0.30),
  ('O=C(NC1(c2ccccc2)CC1)c1n[nH]c2ccc(-c3cncc(CN4CCCC4)c3)cc12', 'log10 of EC50', 2.37),
  ('O=C(NC1CCN(CCF)CC1)c1n[nH]c2ccc(-c3cccc(F)c3F)cc12', 'log10 of EC50', 1.60);
